All figures here come from ChEMBL document CHEMBL3988442.

# Percent Effect per record follows
- STUDY TARGET: Sialic acid-binding Ig-like lectin 9 (Homo sapiens) (UniProt Q9Y336)
- Sequence (Q9Y336 whole entry): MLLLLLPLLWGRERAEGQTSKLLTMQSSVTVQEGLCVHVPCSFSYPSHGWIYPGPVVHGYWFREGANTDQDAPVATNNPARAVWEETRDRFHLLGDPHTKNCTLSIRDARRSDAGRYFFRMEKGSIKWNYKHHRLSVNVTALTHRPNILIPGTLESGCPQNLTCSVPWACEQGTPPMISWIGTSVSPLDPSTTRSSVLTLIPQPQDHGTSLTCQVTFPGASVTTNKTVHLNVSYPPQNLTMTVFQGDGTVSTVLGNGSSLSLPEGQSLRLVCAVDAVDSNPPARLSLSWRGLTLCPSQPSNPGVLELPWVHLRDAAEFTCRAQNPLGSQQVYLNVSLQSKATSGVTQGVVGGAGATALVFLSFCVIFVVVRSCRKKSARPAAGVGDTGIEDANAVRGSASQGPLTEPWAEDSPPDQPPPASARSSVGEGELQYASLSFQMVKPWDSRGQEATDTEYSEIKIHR
- ASSAY REMARKS: Hs-Siglec9 ALPHAscreen SOP 20170721
- Design: scale not given: direction of the effect not stated beside the values
- ASSAY CONDITIONS: 10 µM
Quick reminder: number only, in %, skip the unit.

Previously resolved entries follow.
O=C1CC(c2ccc(C(=O)O)cc2)c2ncn(-c3cccc(F)c3)c2N1 (configuration not stated)	-4.05
COc1ncccc1NC(=O)NCC1CCS(=O)(=O)C1 (configuration not stated)	6.78
COc1ccc(C)cc1CN1CCCC1Cn1nc(C)nc1C (configuration not stated)	4.01
Cc1n[nH]c(=O)c2c(NC(=O)CN3CCC(O)CC3)oc(C)c12	-12.1
O=C(CS(=O)(=O)c1ccccc1Cl)NC1CCCCNC1=O (configuration not stated)	4.43
c1ncn(CC2CN(Cc3csc(C4CCCC4)n3)CCO2)n1 (configuration not stated)	15.7

## Task What does the record list as Percent Effect for Cc1csc(N2CCN(CC(=O)Nc3c(C)n[nH]c3C)CC2C)n1 (configuration not stated) ?
## Result -7.72

## Task What does the record list as Percent Effect for Cn1ccc(CN2CCC(CO)CC2)cc1=O ?
## Result 0.971

## Task Looking for the measured Percent Effect of COc1ccccc1N1CCC(CNCc2cccc(OC)c2OC)C1 (configuration not stated) , can you help?
## Result 3.03

## Task # Percent Effect lookup, item COCCC(=O)N1CC2(CCN(Cc3cccc(Cl)c3)CC2)C1
## Result 2.57

## Task So what does the record say about Percent Effect for CCn1cc(Br)c(C(=O)NCc2cnn(C)c2)n1 ?
## Result 11.9

## Task So what does the record say about Percent Effect for O=C(O)C(c1ccc2c(c1)OCO2)N1CCC(C(=O)N2CCCC2)CC1 (configuration not stated) ?
## Result 1.83

* * *

- System: Trypanosoma cruzi
- ASSAY REMARKS: Trypanosoma cruzi phosphomannomutase and mannose-1-phosphate guanylyltransferase assay
- Assay type: functional
- Set-up: scale not given: direction of the effect not stated beside the values
- ASSAY CONDITIONS: 10 µM
ENDPOINT: Percent Effect (%)
// note: answer is a bare numeric in %

## Task What does the data say about its Percent Effect? Entry: CCN1CCC(NC(=O)CN2CCc3c(ncn3C)C2)CC1
## Result -3.59

## Task Name the recorded Percent Effect for CCN1CCN(CC(C)(O)c2cccc(C(F)(F)F)c2)CC1 (stereo unspecified) .
## Result -3.92

## Task Item under review: Cc1cccc(CN2C[C@@H]3CN(C(=O)[C@H]4CCCO4)C[C@@H]3C2=O)c1 . Reported Percent Effect?
## Result 3

* * *

# key: entry, value: Percent Effect
- STUDY TARGET: Tyrosyl-tRNA synthetase, putative (Trypanosoma cruzi (strain CL Brener)) (UniProt Q4DSP6)
- Sequence (whole entry): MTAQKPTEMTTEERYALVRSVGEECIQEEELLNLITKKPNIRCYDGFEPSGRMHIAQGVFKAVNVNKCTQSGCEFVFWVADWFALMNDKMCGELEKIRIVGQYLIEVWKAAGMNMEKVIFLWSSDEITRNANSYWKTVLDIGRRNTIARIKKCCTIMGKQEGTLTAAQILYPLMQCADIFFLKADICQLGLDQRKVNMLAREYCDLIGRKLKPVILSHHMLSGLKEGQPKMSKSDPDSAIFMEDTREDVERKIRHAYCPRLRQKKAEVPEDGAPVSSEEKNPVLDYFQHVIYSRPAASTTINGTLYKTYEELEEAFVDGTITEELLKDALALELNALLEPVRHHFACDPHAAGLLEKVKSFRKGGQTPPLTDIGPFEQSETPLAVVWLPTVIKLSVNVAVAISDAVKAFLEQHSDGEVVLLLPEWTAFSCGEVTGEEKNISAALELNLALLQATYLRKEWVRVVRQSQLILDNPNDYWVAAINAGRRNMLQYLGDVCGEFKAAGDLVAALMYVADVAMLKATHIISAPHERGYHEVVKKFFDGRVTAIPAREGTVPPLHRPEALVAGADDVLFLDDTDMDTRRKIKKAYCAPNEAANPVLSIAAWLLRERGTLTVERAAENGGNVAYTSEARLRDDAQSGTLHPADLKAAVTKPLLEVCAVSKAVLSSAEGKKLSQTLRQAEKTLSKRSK
- ASSAY REMARKS: Trypanosoma cruzi tyrosyl tRNA synthetase (TcYRS) _High Tyrosine SOP; also: in the data most compounds retested in dose-response had high values
- Format: functional
- Set-up: scale not given: direction of the effect not stated beside the values
- ASSAY CONDITIONS: 30 µM
Express it in %; write the number only.

As a guide, the following entries are already answered.
COc1ccc(CN2CC[C@@H](O)[C@@H]2Cc2ccccc2)cc1	-3.17
Cn1ccnc1CN1CCCC(Cc2ccccn2)C1 (configuration not stated)	4.3
OCC1CCCCN1c1ccc(-c2nc(-c3ccccc3F)no2)cn1 (configuration not stated)	-0.532
COc1ccc(CN(C)C(=O)NCc2c(C)cc(C)[nH]c2=O)cc1	3.45
O=C(c1cccnc1)N1CCn2nnc(COc3cccnc3)c2C1	7.89
O=S(=O)(CCNCc1ccc2c(c1)CCO2)N1CCOCC1	-0.529
CCOc1ccccc1-c1noc(CN(C)Cc2cnn(C)c2)n1	4.76
Cc1nn(C)c(Cl)c1CNCc1ccc(OCC(N)=O)cc1	1.58
Cc1nc(CN2CCC3(CC2)NC(=O)CC3c2ccccc2)cs1 (configuration not stated)	8.7
O=C1CO[C@@H]2CN(CC3CCOCC3)C[C@H]2N1CC1CC1	5.41

## Task Could you tell me which Percent Effect is on file for CC(C)NC(=O)Nc1ccc(CNCc2cccc(C#N)c2)cc1 ?
## Result 9.8

## Task Fill in: Percent Effect of Cc1cc2n(n1)CC(CNC1CCN(c3ccc(F)cc3)CC1)CN2 (configuration not stated) is ___
## Result 1.07
